Please respond with reported Kd for every item in the list.
Target Of Assay: T1, Human GHR-Fc-10x His (extracellular region of human growth hormone receptor fused to human Fc) (human, UniProt P10912 50-256)
T1 construct: Captured by its 10x His-tag on a Ni-NTA sensor chip for SPR; not shown: human Fc domain of vector pAB1200 with its linker; 10x His-tag replacing the AviTag
T1 sequence (looked up): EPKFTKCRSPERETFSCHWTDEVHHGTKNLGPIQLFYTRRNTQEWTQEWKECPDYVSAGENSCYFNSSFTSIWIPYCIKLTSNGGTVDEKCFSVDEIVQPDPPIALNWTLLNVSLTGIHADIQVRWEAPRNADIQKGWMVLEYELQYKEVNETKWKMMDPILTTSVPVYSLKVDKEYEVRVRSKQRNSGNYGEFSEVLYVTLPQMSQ
Measurement Protocol: SPR, GHR-Fc-10xHis captured on Ni-NTA chip, Fab as analyte, 1:1 fit
Answer as a quantity: numeral, then unit.

Here is how some binders turned out for Kd.
Binder | Kd
GHR5 Fab (Fab, V domains shown, Fab) VH: EVQLVESGGGLVQPGGSLRLSCAASGFNVSYYSIHWVRQAPGKGLEWVAYISPSSGSTSYADSVKGRFTISADTSKNTAYLQMNSLRAEDTAVYYCARMYWQGGYSSYWQSYAMDYWGQGTLVTVSS VL: DIQMTQSPSSLSASVGDRVTITCRASQSVSSAVAWYQQKPGKAPKLLIYSASSLYSGVPSRFSGSRSGTDFTLTISSLQPEDFATYYCQQKSQYSLVTFGQGTKVEIKR | 15.5 nM
GHR7 Fab (Fab, V domains shown, Fab) VH: EVQLVESGGGLVQPGGSLRLSCAASGFNFSYSSIHWVRQAPGKGLEWVAYISSYYGYTSYADSVKGRFTISADTSKNTAYLQMNSLRAEDTAVYYCARLQHPSWYYYQGYHSGMDYWGQGTLVTVSS VL: DIQMTQSPSSLSASVGDRVTITCRASQSVSSAVAWYQQKPGKAPKLLIYSASSLYSGVPSRFSGSRSGTDFTLTISSLQPEDFATYYCQQYWSSLITFGQGTKVEIKR | 2.21 nM

For every item in the list below, what is its measured Kd?
1. GHR11 Fab (Fab, V domains shown, Fab) VH: EVQLVESGGGLVQPGGSLRLSCAASGFNLSYYYIHWVRQAPGKGLEWVASIYSSSGYTYYADSVKGRFTISADTSKNTAYLQMNSLRAEDTAVYYCARQYPYSWSSYGFSSGALDYWGQGTLVTVSS VL: DIQMTQSPSSLSASVGDRVTITCRASQSVSSAVAWYQQKPGKAPKLLIYSASSLYSGVPSRFSGSRSGTDFTLTISSLQPEDFATYYCQQYFAYYSPITFGQGTKVEIKR
2. GHR6 Fab (Fab, V domains shown, Fab) VH: EVQLVESGGGLVQPGGSLRLSCAASGFNVYYSSIHWVRQAPGKGLEWVASIYSSYGYTSYADSVKGRFTISADTSKNTAYLQMNSLRAEDTAVYYCARGQWSGLSGYWEYKALDYWGQGTLVTVSS VL: DIQMTQSPSSLSASVGDRVTITCRASQSVSSAVAWYQQKPGKAPKLLIYSASSLYSGVPSRFSGSRSGTDFTLTISSLQPEDFATYYCQQVGGSSLITFGQGTKVEIKR
3. GHR1 Fab (Fab, V domains shown, Synthetic human Fab from phage display, expressed in E. coli) VH: EVQLVESGGGLVQPGGSLRLSCAASGFNVSYSSIHWVRQAPGKGLEWVAYIYSSYGSTYYADSVKGRFTISADTSKNTAYLQMNSLRAEDTAVYYCAREYWPYYSQTGGSAMDYWGQGTLVTVSS VL: DIQMTQSPSSLSASVGDRVTITCRASQSVSSAVAWYQQKPGKAPKLLIYSASSLYSGVPSRFSGSRSGTDFTLTISSLQPEDFATYYCQQSMHPLITFGQGTKVEIKR

A:
1.3 nM
1.89 nM
6.29 nM
